assay: yeast display, Sf9 membrane polyspecificity reagent, FACS + sequencing; frameworks hold sequencing errors

Residues	polyreactivity (PSR sort gate)
QVKLVESGGGLFQAGGSLRLSCAASGITFTFNAMGWYRQAPGKERELVAAITWSGGSTFYADSVKGRFTISRDNAKNTVYLQMNSLKPEDTAVYYCARDTELYVRWLDYWGQGTQVTVSS	low polyreactivity
QVQLVDSGGGLVQAGGILRLICAASGSTFGFYAMGWYRQAPGKERELVAAITTGGSTNYADSVKGRFTISRDNAKNTVYLQMNSLKPEDTAVYYCNADVFWNPYYDYDFWGQGTQVTVSS	high polyreactivity
QGQLVESGGGLVQAGGSLRLSCAASGSIFEGYVMGWYRQAPGKERELFATISFSGGSTYYADSVKGRFTISRDNAKNTGYLQMNSLKPVDTAVYFCADSVPYKFYSVVSVRYEYWGQGTQVTVSS	low polyreactivity
QVQLVESGGGLVQAGGSLRLSCAASGRILASNVMGWYRQAPGKEREFVASITYSGSSTYYADSVKGRFTISRDNAKNTVYLQMNSLKPEDTAVYYCATRYGYSDGDYWGQGTQVTVSS	low polyreactivity
QVQLVESGGGLVQAGGSLRLSCAASGITFNLNDMGWYRQAPGKERELVAAITSGGNTSYADSVKGRFTISRDNAKNTVYLQMNSLKPEDTAVYYCAADLHTELYKMDYWGQGTQVTVSS	low polyreactivity
QVQLVESGGGLVQAGGSLRLSCAASGSIFYGYAMGWYRQAPGKEREFVAGIDSSGGSTSYADSVKGRFTISRDNAKNTVYLQMNSLKPEDTAVYYCNAPDPSDQHGDYWGQGTQVTVSS	low polyreactivity
QVQLVESVGGLDQAGGSLRLRCAASGFIVGYYAMGWYRQAPGKEWEFVAAISWTGGNTYYADSVKGRFTISRDNAKNTVSLQLNSLKPEDTAVYYCNVVVSGYADRDGYNYWGQRTQVTVSS	high polyreactivity
QVQLVESGGGLVQAGGSLRLSCAASGNTLPQNAMGWYRQAPGKERELVAAISRSGGSTYYADSVKGRFTISRDNAKNTVYLQMNSLKPEDTAVYYCAAKLTVSGYRYGYWGQGTQVTVSS	high polyreactivity
QVQLVESGGGLVQAGGSLRLSCAASGRTFRANAMGWYRQAPGKERELVAAISQRGGNTYYADSVKGRFTISRDNAKNTVYLQMNSLKPEDTAVYYCAADITTYRRGRYEYEYWGQGTQVTVSS	high polyreactivity
QVQLVESGGGLVQAGGSLRLSCAASGCIFFQYAMGWYIQAPGKERELVAAISGSGVTTYYADSVKGRFTISRDNAKNTVYLQMNSLKPEDTAVYYCNAALRWKYDWGQGTQVTVSS	low polyreactivity
QVQLVESGGGLVQAGGSLRLSCAASGSTFGDNAMGWYRQAPGKERELVATITWSDDSTYYADSVKGRFTISRDNAKNTVYLQMNSLKPEDTAFYYCAADVDSYLLIGAVEYDYWGHGTQVTVSS	low polyreactivity

###

experiment: yeast display, Sf9 membrane polyspecificity reagent, FACS + sequencing; frameworks hold sequencing errors
Measure name: polyreactivity (PSR sort gate)

Residues	Assay result
QVQLVESGGGLVQAGGSLRLSSAASGLTFYRNAMGWYRQAPGKERELVAGISSSGASTYYADSVKGRFTISRDNAKNTVYLQMNSLKPEDTAVYYCAVRFYGRYLRYNYWGQGTQVTVSS	high polyreactivity
QVQLVESGGGLVQAGGSLRLSCAASGSTFHLYAMGWYRQAPGKETEFVPAIRGRGGNTYADSVKGRFTISRDNAKNTVYLQMNSLKPEDTAVYYCAAPLLRDLRSPYSYNYWGQGTQVTVSS	low polyreactivity
QVQLVESGGVLVQAGGSLRLSSAAYGFIFAKYAMVWYIQAHGKERELVAGISESCGSTYYADSVKGRFTISRDNAKNTVYLQLNSLKPEDTAVYYCNADDTVYFIKAGDYWGQGTQGTVSS	high polyreactivity
QVQLVESGGGLVQAGGILRLSCAASGRIFVFYFMGWYRQAPGKERELVAAITRTGGSTYYADSVKGRFTISRDNAKNTVYLQMNSLKPEDTAFYYCATRYTRFRHFDYWGQGSQVTVSS	low polyreactivity
QVQLVESGGGLVQAGGSLRLSCSASRSTFPGYAMGWYRQAPGKERELVAAISVSGDRTYYADSVKRRFTISRDNPQNTVYLQMNRLKPEDTAVYYCAVRTRYRGSGVWVGNYSWGQGTQVTVSS	high polyreactivity

###

assay: yeast display, Sf9 membrane polyspecificity reagent, FACS + sequencing; frameworks hold sequencing errors

Residues	polyreactivity (PSR sort gate)
QVQLVESGGGVVQAGGSLRLSCAGSGRTFPYYAVGWYRQAPGKERELVAVISSADSTNYADSVKGRFTISRDNAKNTVYLQMNSLKPEDTAVYYCADDAVYYGDDYWGQGTQVTVSS	low polyreactivity
QVQLVESGGGLVQAGGSLRLSCAASGGTFTSNAMGWYRQAPGKERELVAAISSRGGTYYADSVKGRFTISRDNAKNTVYVQMNSLKPEDTAVYYCAARGYLYSWNVSHTYDYWGQGTQVTVSS	high polyreactivity
QVQLVESGGGLVQAGGSLRLSCAASGFTFVKNAMGWYRQAPGKERELVAALSSRGGSTYYADSVKGRFTISRDNAKNTVYLQMNSLKPEDTAVYYCATERERTMGYWGQGTQVTVSS	high polyreactivity
QVQLVESGGGLVQAGGSLRLSCAASGITFPGYAMGWYRQATGKERELVAVIRKSGTSTYYADSVKGRFTISRDTAKNTVYLQMNSLKPEDTAVYYCAAGGPSTLDDYWGQGTQVTVSS	low polyreactivity
QVQLVESGGGLVQAGGSLRLSCAASGFTFSSYAMGWYRQAPGKERELVAAISSSGSRTYYADSVKGRFTISRDNAKNTVYLQMNSLKPEDTAVYYCAARPGDGGYYYWGQGTQVTVSS	high polyreactivity
QVQLVESVGGLVQAGGSLRISSAASGRTFERNTKGWYRQAPGKERELVAAITYDGGSTYYADSVKGRFTISRDNAKKTVYLKMNSLKPEDTAFYYCNAGGYEIYRSPFDYWGQGSQVTVSS	low polyreactivity
QVQIVESGGGLDQAGGSLRLSCAASGRTLGYYAMVWYRQAPGIERELVAAISRTGGRTYYADSVKGRFTISLDNAKNTVYLQMNSLKPEDTAVYYCAVVAPDGYDFYYWGQGTQVTVSS	high polyreactivity
QVQLVESGGGLVQAGGSLRLSCAASGSTFWSYAMGWYRQAPGKEREFVAAISSSDDSTYYADSVKGRFTISRDNAKNTVYLQMNSLKPEDTAVYYCATSWYIYPYDYWGQGTQVTVSS	low polyreactivity
QVQLVESGGGLVQAGRSLRLSCAASGRTFCYYAMGLYRKAPGKERELIAAITNRGGNTYYADSVKGRFTISRDNAKNTVYLQMNSLKPEDTAVYYCAAYNRIYGYHTLYYWGQGTQVTVST	high polyreactivity
QVQLVESGGGLVQAGRSLRLSCAASGRTFVFNAMGWYRQAPGKERELVARITLSGGSTYYADSVKGRFTISRDNAKNTVYLQMNSLKPEDTAVYYCAASHYFWFVQNDSDYWGQGTQVTVSS	low polyreactivity
QVQLVESGGGLVQAGGSLRLSCAASGRNFDRNAMGWSRQAPGKERELVARIDPGDDTNYADSVKGRFTISRDNAKNTVYLQMNSLKPEDTAVYYCATDPDYVLYRTAYYEYDYWGQGTQVTVSS	low polyreactivity

###

assay: yeast display, Sf9 membrane polyspecificity reagent, FACS + sequencing; frameworks hold sequencing errors

Residues	polyreactivity (PSR sort gate)
QVQLVESGGGLVQAGGSLRLSCAASGITIYNYAMGWYRQAPGKERELVAAITRSGGSTYYADSVKGRFTISRDNAKNTVYLQMNSLKPEDTAVYYCATGKYWRYDYWGQGTQVTVSS	high polyreactivity
QVQLVESGGGLVQAGGSLRLSCAASGNTFSPYGMGWYRQAPGKERELVAGITISDDSTYYADSVKGRFTISRDNAKNTVYLQMNSLKPEDTAVYYCNARYLSWYFKYLYDYWGQGTQVTVSS	low polyreactivity
QVQLVESGGGLVQAGGSLRLSCAPSGRTFCPYAMGWYRKAPGKERELVAAISSSGSTTYYADSVKGRFTISRDNAKNTVYLQMNSLKPEDNAVYYCAAVYLRGDGEYDYWGQVTQVTVSS	low polyreactivity
QVQLVESGGGLVQAGGSLRLSCAASGSIFGINAMGWYRQAPGKERELVAAITWSGGSTFYADSVKGRFTISRDNAKNTVYLQMTRLKPEDTAVYYCAADSGREPKGPSRLTYWGQGTQVTVSS	high polyreactivity
QVLLVESGGGLVQAGGSLRLSCAASRSIFEVNPMGWYRQAPGKERELVAAISCSGGSTYYADSVKGRFTISRDNAKNTVYLQMNSLKPEDTAVYYCAARQAGYSGRKLYYWGQGTQVTVSS	low polyreactivity

###

assay: yeast display, Sf9 membrane polyspecificity reagent, FACS + sequencing; frameworks hold sequencing errors

Residues	polyreactivity (PSR sort gate)
QVQLVESRGGLVQAGGSLRLSCAASGRIILIYAMGWYRQAPGKERELVGDISKGGSSTYYADSVKGRVTISRDNAQNTVYLQMNSLKPEDTAVYYCAASGRWTGRQAAYDYWGQGTQVTVSS	high polyreactivity
QVQLVESGGGLVQAGGSLRLSCAASGSTFFLYSMGWYRPAPGKERELVAAINYIGGTYYADSVKGRFTISRDNAKNTVYLQMNSLKPEDTAVYYCAASYVGTIAGMDYWGQGTQVTVSS	low polyreactivity
QVQLVESGGRLVQAGGSLRLSCAPSGFIFGDNGIGGSRQSPGKEMELVAGINRRSGTYYADSVKGRFTISRDNAKNTVYLLMNSLKREDTAVYYCAARLDAYQSGRYYYWGQGTQVTLSS	high polyreactivity
QVQLVESGGGLVQAGGSLRLSCAASGSIFPGYAMGWYRQAPGKERELVATITWSGGSTYYADSVKWRFTISRDNEKNTVYLQMNCLKPEDTAVYYCNADSNWYYQWNYYGLYDYWGQGTQVTVSS	low polyreactivity
QVQLVESGGGLVQAGGSLRLSCAASGRIFGYYAMGWYRQAPGKERELVAAINSGGSTNYADSVKGRFTISRDNAKNTVYLQMNSLKPEDTAVYYCAAGWRYRYFRSRNFYPYYYWGQGTQVTVSS	high polyreactivity
QVQLEESGGGLVQAGGSLRLSCAASGRIFYRYAMGWYRQAPGKERELVAAISSGGSTYYADSVKGRFTISRDNAKNTVYLQMNSLKPDDTAVYYCAATWGRGTYYLYYYWGQGTQVTVSS	high polyreactivity
QVQLVESGGGLVQAGGSLRLSCAASGSIFDYNAMGWNRQAPGKDRELVAAISSGGSTYYADSVKGRFTISRDNAKNTVYLQMNSLKPEDTAVYYCAVKFWMVIQFDYWGQGTQVTVSS	low polyreactivity
QVHLVESGGGLVQAGGSLRLSCAASGRIFNSYAMGWYRPAPGKERELVAAINWTDVSTYYADSVKGRFTLSRYNAKNTVYVELNSLTPDDTAVYYGPDVRWGSYTLSDDYWGQGTQVTVSS	low polyreactivity
QVQLVESGGGLVQAGGSLRLSCAASGSNFFSYAMGWYREAPGKERELVAAIDYSGGGTYYADSVKGRFTISRDNAKNTVYLQMNSLKPEDTAVYYCNSDTEVWADTFISYRALNYWGQGTQVTVSS	low polyreactivity
QVQVVESGGGLVQAGGSLLLSCAASGSTFEYNAMGWYRQAPGKERELVASSTNYADSVKGRFTISRDNAKNTVYLQMNSLKPEDTAVYYCARELGVNRKHDYWGQGTQVTVSS	low polyreactivity
QVQLVESGGGLVQAGGSLRLSCAASGSTFYKYAMGWYRPAPGKERELVAAISRGGSTYYADSVKGRFTISRDNAKNTVYLQMNSLKPEDTAVYYCAALYGLGRPQDSTFLFDYWGQGTQVTVSS	low polyreactivity

Data credit: the nanobody polyreactivity screen of Harvey et al. (2022)
